- Tested on: UACC-62
- method-notes: NCI tumour cell line growth inhibition, 48 h
Activity calls are given as the source filed them. Rule as the data show it: active = GI50 up to about 1.1 µM and inactive = higher.
Outcome codes: T for active, F for inactive

[
  {
    "compound": "CCCN(CCCN)/[N+]([O-])=N\\O",
    "assigned-label": "T"
  },
  {
    "compound": "COc1ccc2c(c1)O[C@H]1c3ccc(O)cc3OC[C@@H]21",
    "assigned-label": "F"
  },
  {
    "compound": "COC(=O)CCc1cc(O)c2c(c1)C(C(=O)OC)C(c1ccc(O)c(O)c1)O2 (stereo unspecified)",
    "assigned-label": "F"
  },
  {
    "compound": "COc1ccc2cc(CN3CCC(C4CCN(Cc5ccc6cc(OC)ccc6c5)CC4)CC3)ccc2c1",
    "assigned-label": "F"
  },
  {
    "compound": "NC(=O)c1[nH]nc(C2OC(CO)C(O)C2O)c1O (stereo unspecified)",
    "assigned-label": "F"
  },
  {
    "compound": "COc1ccc(-c2oc3cc(-c4cc5oc(-c6ccc(OC)cc6)c(-c6ccc(OC)cc6)c5cc4OC)c(OC)cc3c2-c2ccc(OC)cc2)cc1",
    "assigned-label": "F"
  },
  {
    "compound": "Cc1cc(NS(=O)(=O)c2ccc(Nc3c4ccccc4nc4c(C(=O)NCCN(C)C)cccc34)cc2)no1",
    "assigned-label": "F"
  },
  {
    "compound": "CC12Nc3c(Cl)cc(Cl)cc3N1C(=O)c1ccccc12 (stereo unspecified)",
    "assigned-label": "F"
  },
  {
    "compound": "Oc1nc(CC(O)c2ccc(Cl)c(Cl)c2)cc(-c2ccccc2)n1 (stereo unspecified)",
    "assigned-label": "F"
  },
  {
    "compound": "COc1ccc2nc3c(C(=O)NCCN(C)C)cccc3cc2c1",
    "assigned-label": "F"
  },
  {
    "compound": "O=C(c1ccccc1)c1c(-c2ccccc2)[nH]n(-c2ccc([N+](=O)[O-])cc2)c(=O)c1=O",
    "assigned-label": "T"
  }
]

* * *

- Test system: NCI-H23
- method-notes: NCI tumour cell line growth inhibition, 48 h
Activity calls are given as the source filed them. No stated cut-off is given here; in the data, active = GI50 up to about 1.1 µM and inactive = higher.
Outcome codes: yes = active, no = inactive

[
  {
    "molecule": "Cc1ccc(/C=N/Nc2nc3ccccc3s2)s1",
    "assigned-label": "no"
  },
  {
    "molecule": "CCCN(CCC)C(=S)N/N=C(/C)c1ccccc1O",
    "assigned-label": "no"
  },
  {
    "molecule": "CN1N=C(c2ccncc2)OC1c1ccc(Cl)cc1Cl (configuration not stated)",
    "assigned-label": "no"
  },
  {
    "molecule": "O=C1NC2C(=CC(O)C(O)C2O)c2cc3c(cc21)OCO3 (configuration not stated)",
    "assigned-label": "yes"
  },
  {
    "molecule": "O=C(NCCNCCO)N/N=C/c1cccc([N+](=O)[O-])c1",
    "assigned-label": "no"
  },
  {
    "molecule": "COc1nc(N=P(c2ccccc2)(c2ccccc2)c2ccccc2)cc(=O)[nH]1",
    "assigned-label": "no"
  },
  {
    "molecule": "NCC(O)CN.Oc1c(Cl)c(Cl)c(Cl)c(Cl)c1Cl",
    "assigned-label": "no"
  },
  {
    "molecule": "C[C@]12CCC(=O)C=C1CC[C@@H]1C2CC[C@]2(C)NC(=O)C(C#N)CC12 (some centres not stated)",
    "assigned-label": "no"
  },
  {
    "molecule": "COc1cccc(C2c3cc4c(cc3OC(NNS(=O)(=O)c3ccc(C)cc3)C2C)OCO4)c1OC (configuration not stated)",
    "assigned-label": "no"
  },
  {
    "molecule": "CCC1CCC2c3c([nH]c4ccccc34)C3C(=O)N(c4ccc(OC)cc4)C(=O)C3C2C1 (configuration not stated)",
    "assigned-label": "no"
  },
  {
    "molecule": "O=C(CC/C(C/C(=N/O)c1ccc(F)cc1)=N/O)N(Cc1ccccc1)Cc1ccccc1",
    "assigned-label": "no"
  },
  {
    "molecule": "CC(=O)C1C(=O)N(C(C)C)C[C@@H]2CCC(=O)C[C@H]12 (some centres not stated)",
    "assigned-label": "no"
  },
  {
    "molecule": "COc1ccc(C2c3cc4c(cc3OC(N3CCOCC3)C2C)OCO4)cc1OC (configuration not stated)",
    "assigned-label": "no"
  },
  {
    "molecule": "C[S+](C)CCOC(=O)C(=[N+]=[N-])c1ccc([N+](=O)[O-])cc1",
    "assigned-label": "no"
  },
  {
    "molecule": "CC(C)=C[C@@H]1C[C@H](C)[C@H]2CC[C@H](C)[C@H]3C(=O)C(O)=C(C)C(=O)[C@]123",
    "assigned-label": "no"
  },
  {
    "molecule": "CCC(CC)NC1=C(NC(C)=O)C(=O)c2ccccc2C1=O",
    "assigned-label": "no"
  },
  {
    "molecule": "CN(C)c1ccc(C2SCC(=O)N2c2nc3cc4sc(N5C(=O)CSC5c5ccc(N(C)C)cc5)nc4cc3s2)cc1 (configuration not stated)",
    "assigned-label": "no"
  },
  {
    "molecule": "O=C(c1ccccc1)c1c(-c2ccccc2)[nH]n(-c2ccc([N+](=O)[O-])cc2)c(=O)c1=O",
    "assigned-label": "yes"
  },
  {
    "molecule": "COC(=O)c1ccc(/C=C/S(=O)(=O)c2ccccc2)cc1",
    "assigned-label": "no"
  },
  {
    "molecule": "O=c1c(Cc2ccccc2Cc2c(O)oc3ccccc3c2=O)c(O)oc2ccccc12",
    "assigned-label": "no"
  },
  {
    "molecule": "CCNCCCCNCC",
    "assigned-label": "no"
  },
  {
    "molecule": "CCCNC(=O)Cn1c(C)cc2ccccc21",
    "assigned-label": "no"
  },
  {
    "molecule": "CC1=C(C(=O)NC2CCCCC2)CC(C(=O)NC2CCCCC2)=C(C)N1",
    "assigned-label": "no"
  },
  {
    "molecule": "C=CCOn1c(C=C)nc2ccc(C)cc21",
    "assigned-label": "no"
  },
  {
    "molecule": "CN(C)CCCN1C(=O)N(CCCN(C)C)c2c3cc(O)ccc3nc3c([N+](=O)[O-])ccc1c23",
    "assigned-label": "no"
  },
  {
    "molecule": "CN(C)/C=N/CC(O)c1ccccc1 (configuration not stated)",
    "assigned-label": "no"
  },
  {
    "molecule": "OC1CN=C2c3ccccc3C(O)(c3ccc(Cl)cc3)N2C1 (configuration not stated)",
    "assigned-label": "no"
  }
]

* * *

- Test system: DMS-114
- method-notes: NCI tumour cell line growth inhibition, 48 h
Activity calls are given as the source filed them. No stated cut-off is given here; in the data, active = GI50 up to about 1.1 µM and inactive = higher.
Outcome codes: yes (active), no (inactive)

[
  {
    "compound": "CCOC(=O)CCC(NC(=O)c1ccc(NCc2ccc3nc(-c4ccccc4)c(Cl)nc3c2)cc1)C(=O)OCC (stereo not given)",
    "tested-system": "DMS-114",
    "assigned-label": "no"
  },
  {
    "compound": "O=C(Nc1ccccc1SC(/C=C/NNC1=NN=C(c2ccccc2)C(c2ccccc2)N1)c1ccccc1)c1ccc(Cl)cc1Cl (stereo not given)",
    "tested-system": "DMS-114",
    "assigned-label": "no"
  },
  {
    "compound": "CCc1c(Cc2[nH]c(Cc3[nH]c(C=O)c(C)c3CC)c(CC)c2CC)[nH]c(C=O)c1C",
    "tested-system": "DMS-114",
    "assigned-label": "no"
  },
  {
    "compound": "CCOc1ccc2c(c1)[n+]([O-])c(-c1nc3ccccc3s1)c(N)[n+]2[O-]",
    "tested-system": "DMS-114",
    "assigned-label": "no"
  },
  {
    "compound": "C=CNC(=O)NC(=O)CSc1nc(=O)c(-c2ccccc2NC(=O)C(F)(F)F)n[nH]1",
    "tested-system": "DMS-114",
    "assigned-label": "no"
  },
  {
    "compound": "COc1ccc(NC(=O)CC(=O)N/N=C/c2ccc(N(CCC#N)S(C)(=O)=O)cc2)cc1",
    "tested-system": "DMS-114",
    "assigned-label": "no"
  },
  {
    "compound": "O=C1NC2C(=CC(O)C(O)C2O)c2cc3c(cc21)OCO3 (stereo not given)",
    "tested-system": "DMS-114",
    "assigned-label": "yes"
  },
  {
    "compound": "CCN(CC)CCNc1ccc(C)c2sc3ccc(O)cc3c(=O)c12",
    "tested-system": "DMS-114",
    "assigned-label": "yes"
  },
  {
    "compound": "NCCCCNCCCNC(=O)c1nc(-c2nc(CCN)sc2Cl)sc1Cl",
    "tested-system": "DMS-114",
    "assigned-label": "no"
  },
  {
    "compound": "CC(=O)Nc1cccc2[nH]c3ccccc3c(=O)c12",
    "tested-system": "DMS-114",
    "assigned-label": "no"
  },
  {
    "compound": "C/C(=N\\N=C(/S)N1CCCCCC1)c1cccc[n+]1[O-]",
    "tested-system": "DMS-114",
    "assigned-label": "yes"
  },
  {
    "compound": "CC(C)C1CCC/C=C/C=C/C=C/C=C/C(OC2OC(C)C(O)C(N)C2O)CC2OC(O)(CC(O)CC(O)C(O)CCC(=O)O1)CC(O)C2C(=O)O (stereo not given)",
    "tested-system": "DMS-114",
    "assigned-label": "no"
  },
  {
    "compound": "C[C@]12CCC(=O)C=C1CC[C@@H]1C2CC[C@]2(C)NC(=O)C(C#N)CC12 (stereo not given in full)",
    "tested-system": "DMS-114",
    "assigned-label": "no"
  },
  {
    "compound": "O=c1[nH]nc2ccccc2c1Cc1ccccc1",
    "tested-system": "DMS-114",
    "assigned-label": "no"
  },
  {
    "compound": "COC(=O)Cc1cc(=O)oc2c1C(=O)CCC2",
    "tested-system": "DMS-114",
    "assigned-label": "no"
  }
]
